Data provenance is the supplement of paper PMC10567573.

B1: ZNF263 (parent)
chain: PEASHLRFRRFRFQEAAGPREALS

# Variants of: B1
# TEST NAME: protein stability index of a GFP-peptide fusion (GPS, HEK-293T) (PSI 1-6); higher = more stable;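 note: lentivirally expressed fusions sorted by FACS into six bins by GFP to DsRed ratio, PSI derived from sequencing read proportions per bin multiplied by bin number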
# CONDITION LABEL: c terminus: a fixed tail appended
Tick Yes if protein stability index is 3 or greater. Tick No if protein stability index is less than 3.

Recorded results for 5 variants are shown here.
INPUT SEQUENCE	CLASS
PEASHLRFRRFRFQEAAGPREDLS [A22D]	Yes
PEASHLRFRRFRFQEAAGPPEALS [R20P]	No
PEASHLRFCRFRFQEAAGPREALS [R9C]	No
PEACHLRFRRFRFQEAAGPREALS [S4C]	No
PEASHLRFRRFRFQEADGPREALS [A17D]	Yes

Determine whether measured protein stability index meets or exceeds 3 for PEASHLRCRRFRFQEAAGPREALS [F8C]
No

Please indicate if the recorded protein stability index for PEASHLRFRRFRFQEAAGPRAALS [E21A] meets or exceeds 3.
No
